protocol_text: amyloid nucleation score (Sup35N fusion, yeast selection) (log enrichment); library NNK3; higher = more nucleation; inactive = no reads after selection;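 further: zero at mode of non-aggregating sequences after 7 days selection at 30°C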
measured_metric: amyloid nucleation score

LLMKMHDAIAG ... inactive
PMVKPSNLCYSSHCSMGTRG ... inactive
EYGALSTFLRG ... -0.337
RKNSDLTYSNSVNLTCACRT ... 0.434
AWQYVGMISFM ... inactive
RNMEPDASVATV ... inactive
HRREMSHCKREPWKSINFYW ... inactive
LQPGMDFSCRFKRLTLNMVH ... -0.38
KNQYSNSRLWYGALECHAPG ... inactive
YSQLCFF ... inactive

Shift focus to the following entry.
Query: Bench note: what amyloid nucleation score did `LFNYVSMPANSSSRYTGMLL` show?
Result: inactive
